# ASSAYED_SYSTEM: cathepsin K (Homo sapiens, UniProt P43235)
# Sequence (P43235 115-329, species assumed): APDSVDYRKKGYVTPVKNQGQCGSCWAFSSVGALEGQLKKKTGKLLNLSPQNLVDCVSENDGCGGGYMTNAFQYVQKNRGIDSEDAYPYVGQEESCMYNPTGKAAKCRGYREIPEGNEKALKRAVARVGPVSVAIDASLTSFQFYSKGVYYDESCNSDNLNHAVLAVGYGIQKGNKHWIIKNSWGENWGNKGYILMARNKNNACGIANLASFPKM
# PROTOCOL_DETAILS: In vitro assay for inhibition of cathepsin K
# Assay type: biochemical
# APPLIED_CONDITIONS: r cathepsin K, substrate N-CBZ-Phe-Arg-AMC, pH 5.5, 10 min incubation at room temperature
RECORDED_METRIC: IC50 (µM)

Known results for compounds:
COMPOUND: CC(=O)N/C=C(/NC(=O)[C@H](CC(C)C)NC(=O)OCc1ccccc1)C(N)=O [Example 10a]
RECORDED_METRIC: IC50
UNITS_LABEL: µM
MEASURED: 1.42
//
COMPOUND: CC(=O)N/C=C(\NC(=O)[C@H](CC(C)C)NC(=O)OCc1ccccc1)C(N)=O [Example 10b]
RECORDED_METRIC: IC50
UNITS_LABEL: µM
MEASURED: 10.7
//
COMPOUND: CC(C)C[C@H](NC(=O)OCc1ccccc1)C(=O)NC(=CN1CCOCC1)C(N)=O [Example 6]
RECORDED_METRIC: IC50
UNITS_LABEL: µM
MEASURED: 0.003
//
COMPOUND: CC(C)C[C@H](NC(=O)OCc1ccccc1)C(=O)N/C(=C\N1CCC(NC(=O)OC(C)(C)C)C1)C(N)=O (stereo partly shown) [Example 18]
RECORDED_METRIC: IC50
UNITS_LABEL: µM
MEASURED: 0.0096
//
COMPOUND: NC(=O)C(NC(=O)[C@H](Cc1ccccc1)NC(=O)CCc1ccccc1)C(O)O (stereo partly shown) [Example 14]
RECORDED_METRIC: IC50
UNITS_LABEL: µM
MEASURED: 1.13
//
COMPOUND: COC(=O)[C@H](Cc1ccccc1)N/C=C(\NC(=O)[C@H](Cc1ccccc1)NC(=O)OCc1ccccc1)C(N)=O [Example 30b]
RECORDED_METRIC: IC50
UNITS_LABEL: µM
MEASURED: 0.28
//
COMPOUND: CCOC(=O)/C(=C\N1CCOCC1)NC(=O)[C@H](Cc1ccccc1)NC(=O)OCc1ccccc1 [Example 22]
RECORDED_METRIC: IC50
UNITS_LABEL: µM
MEASURED: 0.04
//
COMPOUND: CC(C)C[C@H](NC(=O)OCc1ccccc1)C(=O)N/C(=C\N1CCCCC1)C(N)=O [Example 9]
RECORDED_METRIC: IC50
UNITS_LABEL: µM
MEASURED: 0.014
//
COMPOUND: NC=C(NC(=O)[C@H](Cc1ccccc1)NC(=O)CCc1ccccc1)C(N)=O [Example 4]
RECORDED_METRIC: IC50
UNITS_LABEL: µM
MEASURED: 1.2
//
COMPOUND: NC=C(NC(=O)[C@H](CC1CCCCC1)NC(=O)OCc1ccccc1)C(N)=O [Example 2]
RECORDED_METRIC: IC50
UNITS_LABEL: µM
MEASURED: 1.78

1. COC(=O)CN/C=C(\NC(=O)[C@H](Cc1ccccc1)NC(=O)OCc1ccccc1)C(N)=O [Example 31b]
2. COC(=O)CN/C=C(/NC(=O)[C@H](Cc1ccccc1)NC(=O)OCc1ccccc1)C(N)=O [Example 31a]
3. CC(C)C[C@H](NC(=O)OCc1ccccc1)C(=O)NC(=CNCc1ccccc1)C(=O)NCc1ccccc1 [Example 16]
4. NC(=O)C(NC(=O)[C@H](Cc1ccccc1)NC(=O)OCc1ccccc1)C(O)O (stereo partly shown) [Example 13]
5. COc1ccc(C(=O)/C(=C\N2CCOCC2)NC(=O)[C@H](CC(C)C)NC(=O)OCc2ccccc2)cc1 [Example 28]
# input // ranking: key=IC50, reverse=True Submit the labels in the order that the ranking request calls for.
# output 4, 2, 1, 5, 3
